# Assay Text: Microsomal assays, rat liver microsomes
# Setup Conditions: female, Sprague-Dawley, rat, pH 7.4
Quantity: half-life at 0.08 µM (min)

CC(Cc1ccc(F)cc1)NC(=O)CCc1ccc(C#N)cc1 (stereo not shown); 48
CC(Cc1ccccc1)NCCCc1ccc(F)cc1 (stereo not shown); 18

====

# Tested System: VMAT2 (Rattus norvegicus, UniProt Q01827)
# Construct: from tissue; host or cells: rat striatum, isolated synaptic vesicles
# Sequence (Q01827 whole entry): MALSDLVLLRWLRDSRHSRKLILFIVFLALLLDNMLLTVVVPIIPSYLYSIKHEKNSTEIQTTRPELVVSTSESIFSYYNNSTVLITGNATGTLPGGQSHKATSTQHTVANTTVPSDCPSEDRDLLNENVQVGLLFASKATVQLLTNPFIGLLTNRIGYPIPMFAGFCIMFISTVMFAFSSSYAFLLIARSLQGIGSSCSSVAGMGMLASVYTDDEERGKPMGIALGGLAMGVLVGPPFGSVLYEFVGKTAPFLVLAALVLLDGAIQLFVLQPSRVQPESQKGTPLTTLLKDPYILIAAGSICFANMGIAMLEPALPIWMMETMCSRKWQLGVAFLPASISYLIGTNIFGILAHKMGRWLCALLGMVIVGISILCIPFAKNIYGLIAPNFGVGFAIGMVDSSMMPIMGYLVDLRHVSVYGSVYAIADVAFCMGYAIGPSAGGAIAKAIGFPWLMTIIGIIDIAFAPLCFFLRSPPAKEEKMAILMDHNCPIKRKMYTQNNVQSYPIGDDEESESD
# Assay Text: [3H]Dopamine ([3H]DA) uptake assay, vesicular preparation
# Assay type: biochemical
# Setup Conditions: [3H]DA uptake, rat vesicular preparation; mean of n>=3 unless N given; read-out: VMAT2 (rat) Inhibition: Mean Ki
Quantity: Ki

CC(Cc1ccc(F)c(F)c1)NCCCc1ccc(C(N)=O)cc1 (stereo not drawn); 29 nM
O=[N+]([O-])c1ccc(CCCNC(CF)Cc2ccc(F)cc2)cc1 (stereo not drawn); 44 nM
CC(Cc1ccccc1)N(CCCc1ccc(I)cc1)C(=O)OCc1ccccc1 (stereo not drawn); 4800 nM
CC(Cc1ccccc1)N(CCCc1ccc(N)cc1)C(=O)OCc1ccccc1 (stereo not drawn); 3100 nM
CC(Cc1ccc(F)c(F)c1)NCCCc1cccc(C(N)=O)c1 (stereo not drawn); 32 nM
FCC(Cc1ccccc1)NCCCc1ccc(F)cc1 (stereo not drawn); 17 nM
